# Tested on: FXR:RXRa (NR concentration 270 nM, RXRa partner concentration 90 nM)
# protocol_text: PBM binding z-score (relative to random genomic background probes); higher = stronger binding; sequences stand for … in GC…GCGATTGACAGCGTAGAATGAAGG
property_name: PBM binding z-score
Respond numerically, and do not add a unit to the figure.

Below, each entry is followed by its recorded PBM binding z-score result.
CCTCGGAGGACAACATGAGGTCAGAGCTGCCAGA :: 1.56
AGAACAAGGGCACGCTGAGTTGATAGCAGAGTAG :: 0.401

Data point: TCTAGCACGCCAGAGGGTCACTCAAGAGGTACGG ; PBM binding z-score = 1.04

// AATACCGGGTCATCGTAGGCCAGAGTACGCACAG : PBM binding z-score value = 6.17

Sample CTCGAAAGGTCGGATGAGGTGAGTATACGGATAA ; PBM binding z-score observed: 2.61

Record TCTATTAGTAGAAGGGCAACCGACGAGTCCGTTT , field PBM binding z-score: 0.288
